Ref: paper PMC8466238

- Measurement target: T1, RAMP3-CTR ECD fusion protein (hRAMP3.25–112-(GSA)3-hCTR.34–141-H6) (human, UniProt O60896 25-112; P30988 34-141)
- T1 construct: human receptor activity-modifying protein 3 (RAMP3), extracellular domain, residues 25-112; linker, printed as (GSA)3; human calcitonin receptor (CTR), extracellular domain, residues 34-141; Secreted from a pHLsec-based vector; also called AMY receptor 3 ECD; RAMP3 ECD-CTR ECD fusion protein; source: HEK293S GnTI-, transiently transfected (PEI), secreted to cell culture media, purified (IMAC, SEC)
- T1 chain: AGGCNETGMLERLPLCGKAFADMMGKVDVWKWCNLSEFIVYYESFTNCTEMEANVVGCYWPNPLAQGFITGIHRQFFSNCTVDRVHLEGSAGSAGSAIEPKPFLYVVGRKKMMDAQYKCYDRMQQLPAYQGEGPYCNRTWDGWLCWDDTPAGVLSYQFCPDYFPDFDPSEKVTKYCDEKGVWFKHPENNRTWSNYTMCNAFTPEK
- Test name: fluorescence polarisation; competition binding, full curves: FITC-AC413(6–25) Y25P probe 10 nM, RAMP1-CTR ECD 77 nM, RAMP2-CTR ECD 67 nM or RAMP3-CTR ECD 252 nM, competitive peptide at multiple concentrations, all in solution; KI from non-linear regression of anisotropy
- Condition set: both partners purified
Where no end group is shown, it is not given here. [ ]: non-standard residue; d: D form. Hyp = O=C(O)[C@@H]1C[C@@H](O)CN1
Quantity kind: Ki
Returns: string containing the numeric result and its unit.

Use these answered entries as a reference point.
Binder	Ki
YPRTNTGSGT[Hyp]-NH2 (N-terminus assumed; SMILES C[C@@H](O)[C@H](NC(=O)[C@H](CC(N)=O)NC(=O)[C@@H](NC(=O)[C@H](CCCNC(=N)N)NC(=O)[C@@H]1CCCN1C(=O)[C@@H](N)Cc1ccc(O)cc1)[C@@H](C)O)C(=O)NCC(=O)N[C@@H](CO)C(=O)NCC(=O)N[C@H](C(=O)N1C[C@H](O)C[C@H]1C(N)=O)[C@@H](C)O, salmon calcitonin (sCT), residues 22-32, with P32HYP; numbers count on: the mature 32-residue hormone; Residue 32 is hydroxyproline, not plain proline; source: synthetic peptide (Genscript, HPLC-purified)) [sCT(22–32) P32HYP]	995 nM
YPRTDTGPGT[Hyp]-NH2 (salmon calcitonin (sCT), residues 22-32, with N26D, S29P and P32HYP; numbers count on: the mature 32-residue hormone; Residue 32 is hydroxyproline, not plain proline; also called the mutated sCT(22–32); sCT(22–32) with the combined mutations (N26D, S29P, and P32HYP); source: synthetic peptide (Genscript, HPLC-purified)) [sCT(22–32) N26D/S29P/P32HYP]	118 nM
YPRTDTGPGTP-NH2 (salmon calcitonin (sCT), residues 22-32, with N26D and S29P; numbers count on: the mature 32-residue hormone; source: synthetic peptide (Genscript, HPLC-purified)) [sCT(22–32) N26D/S29P]	333 nM

// switching to the query binder
Reported Ki for YPRTNTGSGTP-NH2 (salmon calcitonin (sCT), residues 22-32; numbers count on: the mature 32-residue hormone; also called wild-type sCT(22–32); salmon calcitonin fragment 22–32; source: synthetic peptide (Genscript, HPLC-purified)) [sCT(22–32)] : what is it?
2560 nM
